This collection of values is drawn from ChEMBL document CHEMBL3616427.

# Tested on: HL-60
# assay-protocol: Induction of cell differentiation in human HL60 cells at 10 uM incubated for 72 hrs in presence of 0.1 uM ATRA by NBT dye based assay
# Format: functional
Kindly state Activity for each of the entries shown.
Provide the reading as a plain figure in %.

Ask: Checklist item: Activity tested on HL-60, entry COC(=O)C(Cn1ccnc1)NC(=O)c1c(C)nn(-c2ccccc2)c1Cl (stereo unspecified) , value?
Reply: 50.51

Ask: Checklist item: Activity tested on HL-60, entry Cc1nn(-c2ccccc2)c(Cl)c1C(=O)NC(Cn1ccnc1)C(=O)OC(C)C (stereo unspecified) , value?
Reply: 51.85

Ask: Checklist item: Activity tested on HL-60, entry CCOC(=O)C(Cn1ccnc1)NC(=O)c1ccc(-c2ccccc2)cc1 (stereo unspecified) , value?
Reply: 45.64

Ask: Checklist item: Activity tested on HL-60, entry Cc1nn(-c2ccccc2)c(Cl)c1C(=O)NC(Cn1ccnc1)C(=O)OCC(C)C (stereo unspecified) , value?
Reply: 40.79

Ask: Checklist item: Activity tested on HL-60, entry CCCOC(=O)C(Cn1ccnc1)NC(=O)c1ccc(-c2ccccc2)cc1 (stereo unspecified) , value?
Reply: 44.78

Ask: Checklist item: Activity tested on HL-60, entry CC(C)COC(=O)C(Cn1ccnc1)NC(=O)c1nc2ccccc2s1 (stereo unspecified) , value?
Reply: 38.62

Ask: Checklist item: Activity tested on HL-60, entry CCOC(=O)C(Cn1ccnc1)NC(=O)c1nc2ccccc2s1 (stereo unspecified) , value?
Reply: 48.31

Ask: Checklist item: Activity tested on HL-60, entry COC(=O)C(Cn1ccnc1)NC(=O)c1ccc(-c2ccccc2)cc1 (stereo unspecified) , value?
Reply: 47.69

Ask: Checklist item: Activity tested on HL-60, entry CCCOC(=O)C(Cn1ccnc1)NC(=O)c1nc2ccccc2s1 (stereo unspecified) , value?
Reply: 42.62

Ask: Checklist item: Activity tested on HL-60, entry CC(C)OC(=O)C(Cn1ccnc1)NC(=O)c1nc2ccccc2s1 (stereo unspecified) , value?
Reply: 50.85

Ask: Checklist item: Activity tested on HL-60, entry COC(=O)C(Cn1ccnc1)NC(=O)c1nc2ccccc2s1 (stereo unspecified) , value?
Reply: 49.11

* * *

# target-desc: Cytochrome P450 26A1 (Homo sapiens, UniProt O43174)
# Sequence (O43174 whole entry): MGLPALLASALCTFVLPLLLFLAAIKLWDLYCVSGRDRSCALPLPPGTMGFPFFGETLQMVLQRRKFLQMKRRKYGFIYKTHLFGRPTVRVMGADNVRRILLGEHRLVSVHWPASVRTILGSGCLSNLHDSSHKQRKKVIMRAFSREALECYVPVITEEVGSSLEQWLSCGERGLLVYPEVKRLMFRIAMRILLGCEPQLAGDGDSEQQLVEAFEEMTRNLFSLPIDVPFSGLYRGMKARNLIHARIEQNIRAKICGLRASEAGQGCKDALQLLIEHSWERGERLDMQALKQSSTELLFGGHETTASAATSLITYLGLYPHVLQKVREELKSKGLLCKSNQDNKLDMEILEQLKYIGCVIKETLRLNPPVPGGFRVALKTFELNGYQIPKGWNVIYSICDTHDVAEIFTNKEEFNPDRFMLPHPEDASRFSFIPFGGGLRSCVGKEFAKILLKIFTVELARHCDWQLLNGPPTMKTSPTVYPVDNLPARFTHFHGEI
# assay-protocol: Inhibition of CYP26A1 in ATRA-induced human HL60 cell microsomes incubated for 30 mins in dark condition with NADPH and ATRA by HPLC method
# Type: cell-based, HL-60
Kindly state pIC50 for each of the entries shown.
Please keep in mind that pIC50 is minus log10 of the molar concentration; only the number is needed.

Ask: Checklist item: pIC50 tested on Cytochrome P450 26A1 (Homo sapiens, UniProt O43174), entry COC(=O)C(Cn1ccnc1)NC(=O)c1c(C)nn(-c2ccccc2)c1Cl (stereo not given) , value?
Reply: 6.66

Ask: Checklist item: pIC50 tested on Cytochrome P450 26A1 (Homo sapiens, UniProt O43174), entry CCCOC(=O)C(Cn1ccnc1)NC(=O)c1c(C)nn(-c2ccccc2)c1Cl (stereo not given) , value?
Reply: 6.21

Ask: Checklist item: pIC50 tested on Cytochrome P450 26A1 (Homo sapiens, UniProt O43174), entry CC(C)OC(=O)C(Cn1ccnc1)NC(=O)c1nc2ccccc2s1 (stereo not given) , value?
Reply: 6.20

Ask: Checklist item: pIC50 tested on Cytochrome P450 26A1 (Homo sapiens, UniProt O43174), entry Cc1nn(-c2ccccc2)c(Cl)c1C(=O)NC(Cn1ccnc1)C(=O)OC(C)C (stereo not given) , value?
Reply: 6.34

Ask: Checklist item: pIC50 tested on Cytochrome P450 26A1 (Homo sapiens, UniProt O43174), entry COC(=O)C(Cn1ccnc1)NC(=O)c1ccc(-c2ccccc2)cc1 (stereo not given) , value?
Reply: 6.43

Ask: Checklist item: pIC50 tested on Cytochrome P450 26A1 (Homo sapiens, UniProt O43174), entry CC(C)COC(=O)C(Cn1ccnc1)NC(=O)c1ccc(-c2ccccc2)cc1 (stereo not given) , value?
Reply: 6.01

Ask: Checklist item: pIC50 tested on Cytochrome P450 26A1 (Homo sapiens, UniProt O43174), entry CCOC(=O)C(Cn1ccnc1)NC(=O)c1c(C)nn(-c2ccccc2)c1Cl (stereo not given) , value?
Reply: 6.22

Ask: Checklist item: pIC50 tested on Cytochrome P450 26A1 (Homo sapiens, UniProt O43174), entry CC(C)OC(=O)C(Cn1ccnc1)NC(=O)c1ccc(-c2ccccc2)cc1 (stereo not given) , value?
Reply: 6.27

Ask: Checklist item: pIC50 tested on Cytochrome P450 26A1 (Homo sapiens, UniProt O43174), entry CCCOC(=O)C(Cn1ccnc1)NC(=O)c1ccc(-c2ccccc2)cc1 (stereo not given) , value?
Reply: 6.10

Ask: Checklist item: pIC50 tested on Cytochrome P450 26A1 (Homo sapiens, UniProt O43174), entry CCOC(=O)C(Cn1ccnc1)NC(=O)c1ccc(-c2ccccc2)cc1 (stereo not given) , value?
Reply: 6.19

* * *

# Test system: HL-60
# assay-protocol: Growth inhibition of human HL60 cells at 10 uM incubated for 48 hrs in presence of 0.1 uM ATRA by MTT assay
# Assay type: functional
readout-label: growth inhibition (GI) (%)
Provide the reading as a plain figure in %.

Ask: Entry under review: CCCOC(=O)C(Cn1ccnc1)NC(=O)c1c(C)nn(-c2ccccc2)c1Cl (stereo not given) . Reported growth inhibition (GI)?
Reply: 45.58

Ask: Entry under review: CC(C)OC(=O)C(Cn1ccnc1)NC(=O)c1nc2ccccc2s1 (stereo not given) . Reported growth inhibition (GI)?
Reply: 46.36

Ask: Entry under review: CCOC(=O)C(Cn1ccnc1)NC(=O)c1c(C)nn(-c2ccccc2)c1Cl (stereo not given) . Reported growth inhibition (GI)?
Reply: 52.17

Ask: Entry under review: CCCOC(=O)C(Cn1ccnc1)NC(=O)c1ccc(-c2ccccc2)cc1 (stereo not given) . Reported growth inhibition (GI)?
Reply: 42.92

Ask: Entry under review: CC(C)OC(=O)C(Cn1ccnc1)NC(=O)c1ccc(-c2ccccc2)cc1 (stereo not given) . Reported growth inhibition (GI)?
Reply: 54.58

Ask: Entry under review: CC(C)COC(=O)C(Cn1ccnc1)NC(=O)c1ccc(-c2ccccc2)cc1 (stereo not given) . Reported growth inhibition (GI)?
Reply: 46.55

Ask: Entry under review: CCOC(=O)C(Cn1ccnc1)NC(=O)c1ccc(-c2ccccc2)cc1 (stereo not given) . Reported growth inhibition (GI)?
Reply: 48.19

Ask: Entry under review: Clc1cccc(C(c2ccc3[nH]cnc3c2)n2ccnc2)c1 (stereo not given) [LIAROZOLE] . Reported growth inhibition (GI)?
Reply: 48.37

Ask: Entry under review: Cc1nn(-c2ccccc2)c(Cl)c1C(=O)NC(Cn1ccnc1)C(=O)OC(C)C (stereo not given) . Reported growth inhibition (GI)?
Reply: 44.79

Ask: Entry under review: CCCOC(=O)C(Cn1ccnc1)NC(=O)c1nc2ccccc2s1 (stereo not given) . Reported growth inhibition (GI)?
Reply: 47.83

* * *

# System: HL-60
# assay-protocol: Induction of cell differentiation in human HL60 cells at 10 uM incubated for 72 hrs in presence of 0.1 uM ATRA by NBT dye based assay
# Format: functional
Lab note: cut-off is 50%. Strictly less in Activity is met. Exactly 50% or more is not met.

Ask: Determine if CC(C)OC(=O)C(Cn1ccnc1)NC(=O)c1ccc(-c2ccccc2)cc1 (stereo not given) shows Activity strictly lower than 50%.
Reply: not met

Ask: Determine if CC(C)COC(=O)C(Cn1ccnc1)NC(=O)c1ccc(-c2ccccc2)cc1 (stereo not given) shows Activity strictly lower than 50%.
Reply: met

Ask: Determine if CCCOC(=O)C(Cn1ccnc1)NC(=O)c1c(C)nn(-c2ccccc2)c1Cl (stereo not given) shows Activity strictly lower than 50%.
Reply: met

Ask: Determine if CCOC(=O)C(Cn1ccnc1)NC(=O)c1c(C)nn(-c2ccccc2)c1Cl (stereo not given) shows Activity strictly lower than 50%.
Reply: met

Ask: Determine if Clc1cccc(C(c2ccc3[nH]cnc3c2)n2ccnc2)c1 (stereo not given) [LIAROZOLE] shows Activity strictly lower than 50%.
Reply: met

* * *

Kindly state pIC50 for each of the entries shown.
# target-desc: Cytochrome P450 26A1 (Homo sapiens)
# assay-protocol: Inhibition of CYP26A1 in ATRA-induced human HL60 cell microsomes incubated for 30 mins in dark condition with NADPH and ATRA by HPLC method
# Assay type: cell-based, HL-60
Please keep in mind that pIC50 is minus log10 of the molar concentration; only the number is needed.

Ask: Entry under review: COC(=O)C(Cn1ccnc1)NC(=O)c1nc2ccccc2s1 (stereo not given) . Reported pIC50?
Reply: 6.39

Ask: Entry under review: CC(C)COC(=O)C(Cn1ccnc1)NC(=O)c1nc2ccccc2s1 (stereo not given) . Reported pIC50?
Reply: 5.95

Ask: Entry under review: CCCOC(=O)C(Cn1ccnc1)NC(=O)c1nc2ccccc2s1 (stereo not given) . Reported pIC50?
Reply: 6.08

Ask: Entry under review: Cc1nn(-c2ccccc2)c(Cl)c1C(=O)NC(Cn1ccnc1)C(=O)OCC(C)C (stereo not given) . Reported pIC50?
Reply: 5.99

Ask: Entry under review: CCOC(=O)C(Cn1ccnc1)NC(=O)c1nc2ccccc2s1 (stereo not given) . Reported pIC50?
Reply: 6.13
